Sourced from PubChem BioAssay (NCATS)

measurement_notes: qHTS assay for small molecule agonists of the antioxidant response element (ARE) signaling pathway measured by Nrf2-dependant transcriptional activity (AID 720636);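 note: HepG2 cells with an ARE-driven luciferase reporter; % of control where 0% means no effect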
particulars: ARE-luc HepG2, Nrf2 luciferase reporter, 16 h; series mostly up to 92.4 µM
Records with an inconclusive call do not appear. The source made the active and inactive calls. Calls come from the whole dose curve; as a rule, active = well fitted activation curve with a large enough effect in the repeat runs; inconclusive = weak or mixed curves; inactive = flat fitted curve, though single readings scatter.
assay_readout: outcome

Some compounds with recorded outcome:
# compound, observed_value
records = [
    ("Cc1nc(N(C)C)nc(OC(=O)N(C)C)c1C", "inactive"),
    ("CO/N=C(/C1=NOCCO1)c1ccccc1Oc1ncnc(Oc2ccccc2Cl)c1F", "inactive"),
    ("CN(C)c1nc(=O)n(C2CCCCC2)c(=O)n1C", "inactive"),
    ("Brc1c(Br)c(Br)c(Br)c(Br)c1Br", "inactive"),
]

Can you give me outcome for all of these, one by one?
1. CC(C)(C)OOC(C)(C)c1ccc(C(C)(C)OOC(C)(C)C)cc1
2. CC(Oc1cccc(Cl)c1)C(=O)O (configuration not stated)
3. O=C(O)C(F)(F)C(F)(F)C(F)(F)C(F)(F)C(F)(F)C(F)(F)C(F)(F)C(F)(F)C(F)(F)F
4. CC(C)(C)N(NC(=O)c1ccc(Cl)cc1)C(=O)c1ccccc1
5. FC(F)C(F)(F)OCC(Cn1cncn1)c1ccc(Cl)cc1Cl (configuration not stated)

Result:
["inactive", "inactive", "inactive", "inactive", "inactive"]

Each of the following entries comes with a recorded value; kindly state outcome for each.
1. C1=Cc2cccc3cccc1c23
2. c1cc2c3c(cccc3c1)CC2
3. CNC(=O)O/N=C/C(C)(C)S(C)(=O)=O

Result:
inactive
inactive
inactive

---

measurement_notes: qHTS assay for cell viability of the p53RE-bla HCT-116 cell line (AID 743292); note: nearly all actives have a fitted effect of over 55% in size
particulars: p53RE-bla HCT-116 viability, ATP luminescence, 16 h; series mostly up to 95 µM
Inconclusive results are not listed. Active and inactive are the calls of the source. Calls come from the whole dose curve; as a rule, active = well fitted cell-killing curve with a large enough effect; inconclusive = small, poorly fitted or top-dose-only effect, or effect the other way; inactive = flat fitted curve, though single readings scatter.
Tick one outcome: label 1 = active, label 0 = inactive

Past entries and their recorded results:
# molecule, qualitative_label
data = [
    ("C/C=C(\\C)C(=O)O[C@H]1C[C@@H](OC(C)=O)[C@@]2(C(=O)OC)CO[C@H]3[C@@H](O)[C@@](C)([C@]45O[C@@]4(C)[C@H]4C[C@@H]5O[C@@H]5OC=C[C@@]54O)[C@H]4[C@]1(CO[C@]4(O)C(=O)OC)[C@@H]32", "label 0"),
    ("CCOC(=O)Nc1cccc(OC(=O)Nc2ccccc2)c1", "label 0"),
    ("CCOC(=O)COc1cc(-c2nn(C)c(OC(F)F)c2Cl)c(F)cc1Cl", "label 0"),
]

Q: Dear colleague, could you share the recorded outcome for COc1ccc(-c2ccccc2)cc1NNC(=O)OC(C)C when you have a moment?
Result: label 0

---

measurement_notes: qHTS assay for small molecule disruptors of the mitochondrial membrane potential - 1 hr assay (AID 651754); note: nearly all actives have a fitted effect of over 35% in size
particulars: series mostly up to 92.2 µM
Inconclusive results are not listed. Calls of active or inactive are those of the source. The call rests on the fitted dose curve.
Outcome (select one): yes = active, no = inactive

Field: example entries. Status: answers known.
# chem_smiles, qualitative_label
data = [
    ("CC(=O)[O-].CC(=O)[O-].O.O.[Cd+2]", "no"),
    ("O=[N+]([O-])C(Br)Br", "no"),
    ("O=[N+]([O-])c1cc(C(F)(F)F)cc([N+](=O)[O-])c1Cl", "no"),
]

Moving on to another molecule below.
Q: Recorded call for Clc1ccc(C(c2ccc(Cl)cc2)C(Cl)Cl)cc1 ?
Result: yes
